experiment: Tmax in Balb/c nude mouse at 5 mg/kg, po; format: ADME, organism-based; details: in vivo
assay readout: Tmax (h)
Give the value in h but do not write h after it.

In: Could you share which Tmax value was measured for O=C(c1ccc(-c2nc3ccc(F)cc3o2)cc1)N1CCN(C(=O)C2(O)CC2)CC1 ?
Out: 2

----------
test: Oral bioavailability in Balb/c nude mouse at 5 mg/kg; type: ADME, organism-based; settings: in vivo
assay readout: bioavailability

In: Could you share which bioavailability value was measured for O=C(c1ccc(-c2nc3ccc(F)cc3o2)cc1)N1CCN(C(=O)C2(O)CC2)CC1 ?
Out: 95%

----------
test: Stability in mouse liver microsomes assessed as compound remaining after 30 mins; assay type: ADME, Microsome; settings: read-out: Stability
assay readout: remaining at 0.5 h (%)
Give the value in % but do not write % after it.

Record excerpt, results attached:
- structure: "O=C(c1ccc(-c2nc3ccc(Cl)cc3o2)cc1)N1CCN(C(=O)C2(O)CC2)CC1"
  unit name: "%"
  numeric result: 92
- structure: "Cn1ncc2ccc(-c3ccc(C(=O)N4CCN(C(=O)C5(O)CC5)CC4)cc3)cc21"
  unit name: "%"
  numeric result: 89
- structure: "O=C(c1ccc(-c2cnc3cccnc3c2)cc1)N1CCN(C(=O)C2(O)CC2)CC1"
  unit name: "%"
  numeric result: 89
- structure: "Cn1ccc2cc(-c3ccc(C(=O)N4CCN(C(=O)C5(O)CC5)CC4)cc3)ccc21"
  unit name: "%"
  numeric result: 81
- structure: "O=C(c1ccc(-c2ccc3ccccc3n2)cc1)N1CCN(C(=O)C2(O)CC2)CC1"
  unit name: "%"
  numeric result: 79
- structure: "O=C(c1ccc(-c2ccc(Cl)cc2F)cc1)N1CCN(C(=O)C2(O)CC2)CC1"
  unit name: "%"
  numeric result: 92

Now consider a different molecule.
In: Could you share which remaining at 0.5 h value was measured for O=C(c1ccc(-c2ccc3scnc3c2)cc1)N1CCN(C(=O)C2(O)CC2)CC1 ?
Out: 88

----------
assay: Kinetic solubility of compound at pH 7.4; type: physicochemical; settings: buffer, read-out: Kinetic_solubility
assay readout: solubility kinetic
Give your result as the value with the unit written after it.

Record excerpt, results attached:
- structure: "O=C(c1ccc(-c2ccc3cnccc3c2)cc1)N1CCN(C(=O)C2(O)CC2)CC1"
  solubility kinetic: "77 µM"
- structure: "O=C(c1ccc(-c2nc3ccc(Cl)cc3o2)cc1)N1CCN(C(=O)C2(O)CC2)CC1"
  solubility kinetic: "7 µM"

In: Could you share which solubility kinetic value was measured for O=C(c1ccc(-c2ccc(Cl)cc2F)cc1)N1CCN(C(=O)C2(O)CC2)CC1 ?
Out: 33 µM

In: Also need O=C(c1ccc(-c2ccc3ccccc3n2)cc1)N1CCN(C(=O)C2(O)CC2)CC1 , thanks.
Out: 71 µM

----------
Listed here are compounds together with their documented log10(IC50).
biological target: Fatty acid synthase (Homo sapiens); test: Inhibition of full length recombinant human FASN using acetyl-CoA/malonyl-CoA as substrate preincubated for 60 mins followed by substrate addition and measured after 90 mins in presence of NADPH
Sequence (P49327 whole entry): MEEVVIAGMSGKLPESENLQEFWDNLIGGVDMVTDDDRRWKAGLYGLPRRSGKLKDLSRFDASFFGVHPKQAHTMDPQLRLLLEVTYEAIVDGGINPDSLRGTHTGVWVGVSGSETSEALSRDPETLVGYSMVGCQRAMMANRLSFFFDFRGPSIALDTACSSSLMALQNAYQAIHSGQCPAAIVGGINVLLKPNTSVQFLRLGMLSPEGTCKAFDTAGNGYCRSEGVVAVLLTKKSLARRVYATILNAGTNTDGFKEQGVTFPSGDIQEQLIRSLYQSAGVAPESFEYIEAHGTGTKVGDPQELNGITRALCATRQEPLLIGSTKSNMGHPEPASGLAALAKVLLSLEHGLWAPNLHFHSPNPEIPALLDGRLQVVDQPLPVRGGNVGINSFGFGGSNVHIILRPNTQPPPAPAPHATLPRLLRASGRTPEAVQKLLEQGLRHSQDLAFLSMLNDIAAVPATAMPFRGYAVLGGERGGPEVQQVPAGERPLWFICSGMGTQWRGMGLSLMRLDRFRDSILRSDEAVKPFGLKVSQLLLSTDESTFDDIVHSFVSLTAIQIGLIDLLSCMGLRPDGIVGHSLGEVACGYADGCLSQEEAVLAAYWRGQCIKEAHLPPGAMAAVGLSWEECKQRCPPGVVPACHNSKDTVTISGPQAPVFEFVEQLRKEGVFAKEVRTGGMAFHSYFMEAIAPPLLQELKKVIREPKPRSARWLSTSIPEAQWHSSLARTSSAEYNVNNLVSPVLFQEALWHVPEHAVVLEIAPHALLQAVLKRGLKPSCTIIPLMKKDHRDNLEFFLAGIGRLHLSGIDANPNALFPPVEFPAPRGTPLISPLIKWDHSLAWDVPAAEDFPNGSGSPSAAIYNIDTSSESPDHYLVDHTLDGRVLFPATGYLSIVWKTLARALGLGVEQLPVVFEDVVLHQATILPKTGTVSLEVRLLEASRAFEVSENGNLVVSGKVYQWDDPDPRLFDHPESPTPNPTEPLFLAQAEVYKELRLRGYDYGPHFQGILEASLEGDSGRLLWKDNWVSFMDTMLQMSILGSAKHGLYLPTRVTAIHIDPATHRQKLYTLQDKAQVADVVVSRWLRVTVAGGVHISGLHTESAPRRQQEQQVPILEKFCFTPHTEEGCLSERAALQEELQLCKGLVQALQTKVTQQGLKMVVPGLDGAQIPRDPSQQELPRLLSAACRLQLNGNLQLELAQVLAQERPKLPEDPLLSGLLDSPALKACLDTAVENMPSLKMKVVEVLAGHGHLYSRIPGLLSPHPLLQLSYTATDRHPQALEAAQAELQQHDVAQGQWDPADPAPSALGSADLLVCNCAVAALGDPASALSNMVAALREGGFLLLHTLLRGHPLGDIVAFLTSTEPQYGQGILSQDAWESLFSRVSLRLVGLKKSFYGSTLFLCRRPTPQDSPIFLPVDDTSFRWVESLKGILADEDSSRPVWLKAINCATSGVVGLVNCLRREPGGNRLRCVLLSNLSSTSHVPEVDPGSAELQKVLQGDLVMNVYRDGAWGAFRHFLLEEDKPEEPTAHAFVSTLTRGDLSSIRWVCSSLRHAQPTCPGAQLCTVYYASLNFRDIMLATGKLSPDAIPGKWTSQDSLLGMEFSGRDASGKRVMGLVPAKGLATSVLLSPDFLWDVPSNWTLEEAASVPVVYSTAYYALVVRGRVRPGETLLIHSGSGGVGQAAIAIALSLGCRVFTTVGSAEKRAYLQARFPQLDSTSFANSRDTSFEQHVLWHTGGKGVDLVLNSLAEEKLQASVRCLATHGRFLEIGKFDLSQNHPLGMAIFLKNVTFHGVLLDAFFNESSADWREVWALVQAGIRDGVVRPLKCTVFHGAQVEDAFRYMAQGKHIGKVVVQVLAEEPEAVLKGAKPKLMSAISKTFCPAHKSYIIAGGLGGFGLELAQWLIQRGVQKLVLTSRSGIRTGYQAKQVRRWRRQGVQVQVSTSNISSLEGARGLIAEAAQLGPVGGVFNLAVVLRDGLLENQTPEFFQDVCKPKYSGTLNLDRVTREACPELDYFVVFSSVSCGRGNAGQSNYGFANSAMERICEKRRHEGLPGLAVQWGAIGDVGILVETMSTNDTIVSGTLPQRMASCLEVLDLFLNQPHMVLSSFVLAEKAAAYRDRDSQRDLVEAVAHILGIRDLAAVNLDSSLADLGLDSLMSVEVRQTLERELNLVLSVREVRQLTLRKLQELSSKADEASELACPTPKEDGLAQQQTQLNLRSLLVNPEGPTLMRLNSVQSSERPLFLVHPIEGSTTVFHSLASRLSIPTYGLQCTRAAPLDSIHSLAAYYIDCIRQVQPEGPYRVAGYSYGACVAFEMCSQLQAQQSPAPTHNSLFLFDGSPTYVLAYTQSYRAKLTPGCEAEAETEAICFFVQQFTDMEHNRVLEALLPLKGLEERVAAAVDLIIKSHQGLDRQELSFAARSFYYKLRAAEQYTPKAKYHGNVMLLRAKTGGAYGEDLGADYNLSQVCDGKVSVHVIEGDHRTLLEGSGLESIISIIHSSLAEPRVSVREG
Values are log10 of IC50 in nM.

- compound: "O=C(c1ccc(-c2nc3ccc(Cl)cc3o2)cc1)N1CCN(C(=O)C2(O)CC2)CC1"
  log10(IC50): 1.99
- compound: "Cn1c(-c2ccc(C(=O)N3CCN(C(=O)C4(O)CC4)CC3)cc2)cc2ccccc21"
  log10(IC50): 1.52
- compound: "Cn1ccc2cc(-c3ccc(C(=O)N4CCN(C(=O)C5(O)CC5)CC4)cc3)ccc21"
  log10(IC50): 1.08
- compound: "O=C(c1ccc(-c2ccccc2)cc1)N1CCN(C(=O)C2(O)CC2)CC1"
  log10(IC50): 2.54

In: Could you share which log10(IC50) value was measured for O=C(c1ccc(-c2nc3cc(F)ccc3o2)cc1)N1CCN(C(=O)C2(O)CC2)CC1 ?
Out: 2.28

In: Also need O=C(c1ccc(-c2ccccc2)cc1)N1CCN(C(=O)C2CCCO2)CC1 (racemic) , thanks.
Out: 3.06

In: Also need O=C(c1ccc(-c2ccccc2)cc1)N1CCN(C(=O)[C@H]2CCCO2)CC1 , thanks.
Out: 3.04

In: Also need O=C(c1ccc(-c2cc(Cl)ccc2F)cc1)N1CCN(C(=O)C2(O)CC2)CC1 , thanks.
Out: 2.04

In: Also need O=C(c1ccc(-c2ccc(Cl)cc2F)cc1)N1CCN(C(=O)C2(O)CC2)CC1 , thanks.
Out: 2.04

In: Also need O=C(c1ccc(-c2ccc(F)cc2Cl)cc1)N1CCN(C(=O)C2(O)CC2)CC1 , thanks.
Out: 2.49

In: Also need O=C(c1ccc(-c2ccccc2)cc1)N1CCN(C(=O)C2(O)CCC2)CC1 , thanks.
Out: 3.26

In: Also need O=C(c1ccc(-c2cnc3ccccc3c2)cc1)N1CCN(C(=O)C2(O)CC2)CC1 , thanks.
Out: 1.00

In: Also need O=C(c1ccc(-c2nc3ccc(F)cc3o2)cc1)N1CCN(C(=O)C2(O)CC2)CC1 , thanks.
Out: 2.33

In: Also need Cn1ncc2ccc(-c3ccc(C(=O)N4CCN(C(=O)C5(O)CC5)CC4)cc3)cc21 , thanks.
Out: 1.41

In: Also need O=C(c1ccc(-c2ccc3[nH]ccc3c2)cc1)N1CCN(C(=O)C2(O)CC2)CC1 , thanks.
Out: 1.20

----------
Listed here are compounds together with their documented pIC50.
tested on: PC-3; assay: Antiproliferative activity against human PC3 cells after 96 hrs by MTT assay; type: functional, cell-based; settings: PC-3, 96 h
For clarity, pIC50 is expressed as the negative log10 of concentration in mol/L.

- structure: "O=C(c1ccc(-c2ccc3cnccc3c2)cc1)N1CCN(C(=O)C2(O)CC2)CC1"
  pIC50: 7.89

In: Lab note: need pIC50 with PC-3 for entry Cn1ncc2ccc(-c3ccc(C(=O)N4CCN(C(=O)C5(O)CC5)CC4)cc3)cc21 , please look it up.
Out: 7.92

In: Also need O=C(c1ccc(-c2ccc3scnc3c2)cc1)N1CCN(C(=O)C2(O)CC2)CC1 , thanks.
Out: 7.77

----------
molecular target: Fatty acid synthase (Homo sapiens); assay: Inhibition of full length recombinant human FASN using acetyl-CoA/malonyl-CoA as substrate preincubated for 60 mins followed by substrate addition and measured after 90 mins in presence of NADPH
assay readout: IC50

- structure: "O=C(c1ccc(-c2ccccc2)cc1)N1CCN(C(=O)[C@@H]2CCCO2)CC1"
  IC50: "≥ 50 µM"

In: Could you share which IC50 value was measured for O=C(c1ccc(-c2ccccc2)cc1)N1CCN(C(=O)C2(O)CCCC2)CC1 ?
Out: > 50 µM

In: Also need O=C(c1ccc(-c2ccccc2)cc1)N1CCN(C(=O)C2CCCC2)CC1 , thanks.
Out: > 50 µM
